Cited source: patent US20240034762A1

tested system: T1, soluble extracellular domain of human α-Klotho (aa 1-980) fused to a 6xHis tag (human, UniProt Q9UEF7 34-980)
T1 construct: Secreted from HEK293 EBNA cells; also called sKLA; soluble α-Klotho
T1 sequence: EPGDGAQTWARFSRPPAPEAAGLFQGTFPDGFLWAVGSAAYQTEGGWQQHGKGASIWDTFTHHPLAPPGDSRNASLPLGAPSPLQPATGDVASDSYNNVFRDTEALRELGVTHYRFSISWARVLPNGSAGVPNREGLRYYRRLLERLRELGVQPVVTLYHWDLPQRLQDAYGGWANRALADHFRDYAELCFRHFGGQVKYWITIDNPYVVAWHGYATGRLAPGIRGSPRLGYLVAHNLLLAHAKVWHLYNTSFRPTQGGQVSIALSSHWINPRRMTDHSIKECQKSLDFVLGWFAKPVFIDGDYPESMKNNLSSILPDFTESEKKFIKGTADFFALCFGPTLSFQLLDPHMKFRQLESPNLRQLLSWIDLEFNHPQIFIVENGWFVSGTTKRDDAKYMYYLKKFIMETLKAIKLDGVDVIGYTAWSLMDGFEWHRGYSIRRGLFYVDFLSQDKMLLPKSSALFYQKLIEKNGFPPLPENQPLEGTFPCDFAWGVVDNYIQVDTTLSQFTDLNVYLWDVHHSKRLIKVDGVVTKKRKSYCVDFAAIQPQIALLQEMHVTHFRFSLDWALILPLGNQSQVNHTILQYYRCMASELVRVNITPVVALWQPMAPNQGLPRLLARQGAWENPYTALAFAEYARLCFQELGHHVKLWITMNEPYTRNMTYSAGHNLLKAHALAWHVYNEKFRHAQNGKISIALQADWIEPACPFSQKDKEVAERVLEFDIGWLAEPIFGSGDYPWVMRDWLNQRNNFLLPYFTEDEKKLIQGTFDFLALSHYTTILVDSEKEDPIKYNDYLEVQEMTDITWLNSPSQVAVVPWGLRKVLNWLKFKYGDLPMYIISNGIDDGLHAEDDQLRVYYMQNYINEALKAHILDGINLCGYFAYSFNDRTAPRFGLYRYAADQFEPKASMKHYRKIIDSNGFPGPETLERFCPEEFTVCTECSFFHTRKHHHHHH
assay name: BLI; FLAG-tagged FGF23 captured by anti-FLAG M2 on anti-mouse Fc sensors, sKLA 6.25-200 nM as analyte, 1:1 fit
test readout: Kd (nM)
Numbers only, in nM.

Please review the entries below; each comes with its answer.
binder | Kd / nM
FLAG-tagged human FGF23 D188A mutant expressed in Expi293F cells (ligand) DYKDDDDKYPNASPLLGSSWGGLIHLYTATARNSYHLQIHKNGHVDGAPHQTIYSALMIRSEDAGFVVITGVMSRRYLCMDFRGNIFGSHYFDPENCRFQHQTLENGYDVYHSPQYHFLVSLGAAKAAFLPGMNPPPYSQFLSRRNEIPLIHFNTPIPRQHTQSAEDDSERAPLNVLKPRARMTPAPASCSQELPSAEDNSPMASDPLGVVRGGRVNTHAGGTGPEGCRPFAKFI | 13
FLAG-tagged human FGF23 (aa 25-251) expressed in Expi293F cells (ligand, O-linked glycosylation (sites not given); Cys206-Cys244 disulfide bridge, also called FGF23-WT; mFGF23-WT) DYKDDDDKYPNASPLLGSSWGGLIHLYTATARNSYHLQIHKNGHVDGAPHQTIYSALMIRSEDAGFVVITGVMSRRYLCMDFRGNIFGSHYFDPENCRFQHQTLENGYDVYHSPQYHFLVSLGAAKAAFLPGMNPPPYSQFLSRRNEIPLIHFNTPIPRQHTQSAEDDSERDPLNVLKPRARMTPAPASCSQELPSAEDNSPMASDPLGVVRGGRVNTHAGGTGPEGCRPFAKFI | 14
FLAG-tagged human FGF23 C206S/C244S/D188A mutant expressed in Expi293F cells (ligand, also called FGF23-CS D188A) DYKDDDDKYPNASPLLGSSWGGLIHLYTATARNSYHLQIHKNGHVDGAPHQTIYSALMIRSEDAGFVVITGVMSRRYLCMDFRGNIFGSHYFDPENCRFQHQTLENGYDVYHSPQYHFLVSLGAAKAAFLPGMNPPPYSQFLSRRNEIPLIHFNTPIPRQHTQSAEDDSERAPLNVLKPRARMTPAPASSSQELPSAEDNSPMASDPLGVVRGGRVNTHAGGTGPEGSRPFAKFI | 18

# input for lookup
Sample FLAG-tagged human FGF23 C206S/C244S mutant expressed in Expi293F cells (ligand, O-linked glycosylation (sites not given), also called FGF23-CS; mFGF23-CS) DYKDDDDKYPNASPLLGSSWGGLIHLYTATARNSYHLQIHKNGHVDGAPHQTIYSALMIRSEDAGFVVITGVMSRRYLCMDFRGNIFGSHYFDPENCRFQHQTLENGYDVYHSPQYHFLVSLGAAKAAFLPGMNPPPYSQFLSRRNEIPLIHFNTPIPRQHTQSAEDDSERDPLNVLKPRARMTPAPASSSQELPSAEDNSPMASDPLGVVRGGRVNTHAGGTGPEGSRPFAKFI — what was its Kd?
18
